Target of assay: Casein kinase I isoform epsilon (Homo sapiens, UniProt P49674)
Sequence (P49674 whole entry, looked up, canonical isoform): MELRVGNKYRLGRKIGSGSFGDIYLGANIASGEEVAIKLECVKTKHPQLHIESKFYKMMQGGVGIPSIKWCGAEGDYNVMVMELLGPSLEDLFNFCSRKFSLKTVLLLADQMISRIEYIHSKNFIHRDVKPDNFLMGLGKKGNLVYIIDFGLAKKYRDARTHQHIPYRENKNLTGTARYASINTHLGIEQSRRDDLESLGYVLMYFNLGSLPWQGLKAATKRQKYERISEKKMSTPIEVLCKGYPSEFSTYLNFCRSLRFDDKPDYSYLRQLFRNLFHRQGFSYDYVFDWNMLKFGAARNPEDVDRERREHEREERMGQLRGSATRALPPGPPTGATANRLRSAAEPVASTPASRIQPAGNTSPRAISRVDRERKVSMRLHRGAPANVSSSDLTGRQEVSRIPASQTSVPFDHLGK
Protocol: Binding affinity to CSNK1E (unknown origin) assessed as change in melting temperature by SYPRO orange dye based DSF assay
If the reported deltaTm equals or exceeds 5 K, assign TRUE. If not, assign FALSE.

[
  {
    "Cpd smiles": "O=C(NCCCN1CCCC1=O)c1cnc(NCc2cc(Cl)ccc2Cl)nc1NC1CC1",
    "Class name": "FALSE"
  },
  {
    "Cpd smiles": "CN[C@@H]1C[C@H]2O[C@@](C)([C@@H]1OC)n1c3ccccc3c3c4c(c5c6ccccc6n2c5c31)C(=O)NC4",
    "Class name": "FALSE"
  },
  {
    "Cpd smiles": "O=C(NCCCN1CCCC1=O)c1cnc(NCc2ccccc2Cl)nc1NC1CCCC1",
    "Class name": "FALSE"
  }
]

### Prompt Is deltaTm at least 5 K? Consider O=C(NCCCN1CCOC1=O)c1cnc(NCc2cc(Cl)ccc2Cl)nc1NC1CCCC1
### Response TRUE

### Prompt Now this one: O=C(NCCCN1CCCC1=O)c1cnc(NCc2cc(Br)ccc2Br)nc1NC1CCCC1
### Response FALSE

* * *

Species on record: Homo sapiens
Protocol: Binding affinity to MERTK-AXL mutant (unknown origin) expressed in Escherichia coli Rosetta cells assessed as change in melting temperature by SYPRO orange dye based DSF assay
If the reported deltaTm equals or exceeds 0 K, assign class 1. If not, assign class 0.

Some solved entries appear below for comparison.
[
  {
    "Cpd smiles": "O=C(NCCCN1CCCC1=O)c1cnc(NCc2cc(Cl)ccc2Cl)nc1NC1CCCCC1",
    "Class name": "class 1"
  },
  {
    "Cpd smiles": "Cc1cc(Br)c(CNc2ncc(C(=O)NCCCN3CCOC3=O)c(NC3CCCCC3)n2)cc1Br",
    "Class name": "class 1"
  },
  {
    "Cpd smiles": "O=C(NCCCN1CCOC1=O)c1cnc(NCc2cc(Cl)ccc2Cl)nc1NC1CCCC1",
    "Class name": "class 1"
  },
  {
    "Cpd smiles": "O=C(NCCCN1CCCC1=O)c1cnc(NCc2cc(Cl)ccc2Cl)nc1Nc1ccccc1",
    "Class name": "class 0"
  },
  {
    "Cpd smiles": "O=C(NCCCN1CCCC1=O)c1cnc(NCc2ccccc2Cl)nc1NC1CCCC1",
    "Class name": "class 0"
  },
  {
    "Cpd smiles": "Cc1ccc(CNc2ncc(C(=O)NCCCN3CCOC3=O)c(NC3CCCC3)n2)c(Br)c1",
    "Class name": "class 0"
  }
]

### Prompt Is deltaTm at least 0 K? Consider O=C(NCCCN1CCCC1=O)c1cnc(NCc2cc(Br)ccc2Br)nc1NC1CCCC1
### Response class 1

### Prompt Now this one: O=C(NCCCN1CCCC1=O)c1cnc(NCc2ccccc2)nc1NC1CCCC1
### Response class 1

* * *

Target of assay: Tyrosine-protein kinase ABL1 (Homo sapiens, UniProt P00519)
Sequence (P00519 whole entry): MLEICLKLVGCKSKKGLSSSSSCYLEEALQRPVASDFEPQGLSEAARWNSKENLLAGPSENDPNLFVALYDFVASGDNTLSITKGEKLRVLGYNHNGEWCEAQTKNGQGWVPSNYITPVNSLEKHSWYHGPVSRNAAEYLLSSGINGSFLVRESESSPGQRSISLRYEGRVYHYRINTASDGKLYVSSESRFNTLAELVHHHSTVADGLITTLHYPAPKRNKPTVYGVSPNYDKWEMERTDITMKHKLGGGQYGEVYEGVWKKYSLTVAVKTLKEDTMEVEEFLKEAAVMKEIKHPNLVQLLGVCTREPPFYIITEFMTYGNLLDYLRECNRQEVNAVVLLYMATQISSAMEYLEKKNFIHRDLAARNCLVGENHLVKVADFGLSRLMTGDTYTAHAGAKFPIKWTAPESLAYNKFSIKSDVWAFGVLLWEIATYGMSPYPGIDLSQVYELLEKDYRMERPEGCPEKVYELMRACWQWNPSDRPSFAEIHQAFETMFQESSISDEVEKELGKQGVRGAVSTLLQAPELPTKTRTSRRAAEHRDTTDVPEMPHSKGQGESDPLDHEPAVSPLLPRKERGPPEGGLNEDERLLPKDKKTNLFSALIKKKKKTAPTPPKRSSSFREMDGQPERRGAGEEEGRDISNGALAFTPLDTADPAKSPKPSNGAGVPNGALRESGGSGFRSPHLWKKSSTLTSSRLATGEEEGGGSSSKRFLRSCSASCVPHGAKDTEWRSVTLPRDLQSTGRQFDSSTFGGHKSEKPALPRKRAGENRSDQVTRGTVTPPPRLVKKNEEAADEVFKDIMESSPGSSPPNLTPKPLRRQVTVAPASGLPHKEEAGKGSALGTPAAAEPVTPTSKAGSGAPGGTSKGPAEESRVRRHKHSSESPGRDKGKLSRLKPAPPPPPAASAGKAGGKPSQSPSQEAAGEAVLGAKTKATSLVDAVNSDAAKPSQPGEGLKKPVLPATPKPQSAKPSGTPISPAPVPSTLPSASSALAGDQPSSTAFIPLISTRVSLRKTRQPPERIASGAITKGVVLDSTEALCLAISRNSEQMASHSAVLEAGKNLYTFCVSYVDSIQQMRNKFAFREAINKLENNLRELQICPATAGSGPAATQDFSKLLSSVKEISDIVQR
Measured attribute: pKd
One number for each entry, as −log10 of the molar value.

### Prompt Which value of pKd has been reported for O=C(NCCCN1CCOC1=O)c1cnc(NCc2cc(Cl)ccc2Cl)nc1NC1CCCC1 in the records?
### Response 6.13

This collection of values is drawn from ChEMBL document CHEMBL4828765.
